System: SK-MEL-5 melanoma
Assay: NCI-60 one-dose screen, 48 h
Settings: 10 µM
The panel holds about 83,000 compounds, 20% with a hit somewhere; the sample as a whole holds those more often. Calls of active or inactive are those of the source. The calls were made as follows: active = growth percent below 10; inactive = the rest.
Parameter call: string, one of 1 (yes) for active, 0 (no) for inactive

Look over these answered cases.
>>> group("Brc1ccc(/C=N/Nc2ncnc3sc4c(c23)CCN(Cc2ccccc2)C4)cc1")
"0 (no)"
>>> group("CC(C)NC(=O)c1cc(-c2ccc(NC(=O)Nc3ccc(N4CCN(C)CC4)c(C(F)(F)F)c3)cc2)nc2cccnc12")
"1 (yes)"
>>> group("O=C(NCCCCC(c1ccc(F)cc1)c1ccc(F)cc1)NCCCc1cccnc1")
"1 (yes)"
>>> group("CCOC(=O)CNC(=O)CN(Cc1ccccc1)C(=O)[C@@]1(C)CCC[C@]2(C)[C@H]3C[C@H]4C(C(C)C)=C[C@]3(CC[C@H]21)[C@@H]1C(=O)OC(=O)[C@@H]14")
"0 (no)"
>>> group("COc1ccc(-c2nc(S(=O)(=O)c3ccccc3)c(S(C)(=O)=O)o2)cc1")
"0 (no)"

Shift focus to the following entry.
Q) How did this test come out for COc1cc(OC(F)(F)F)ccc1C(=O)Nc1sc2c(c1C#N)CCC(=O)C2 ?
A) 0 (no)

Numbers sourced from PubChem BioAssay (NCI).
